Record set of pKi for target or system Glycogen phosphorylase, muscle form (Oryctolagus cuniculus).
In textbook form, pKi equals minus log to base ten of the concentration in mol/L.

# molecule O=C(O)CCC(=O)N[C@@H]1O[C@H](CO)[C@@H](O)[C@H](O)[C@H]1O ; its pKi = 4.70

Entry COc1ccc(C(=O)NC(=O)N[C@@H]2O[C@H](CO)[C@@H](O)[C@H](O)[C@H]2O)cc1 — recorded pKi = 5.49

COC(=O)N[C@@H]1O[C@H](CO)[C@@H](O)[C@H](O)[C@H]1O yielded pKi of 3.68

Note to self: pKi recorded for NC(=O)NC1O[C@H](CO)[C@@H](O)[C@H](O)[C@H]1O (single isomer, unassigned) was 3.85

O=C(NC(=O)c1ccc(C(=O)O)cc1)N[C@@H]1O[C@H](CO)[C@@H](O)[C@H](O)[C@H]1O yielded pKi of 4.07

Per the record, O=C(NC(=O)c1ccc(Cl)cc1)N[C@@H]1O[C@H](CO)[C@@H](O)[C@H](O)[C@H]1O has pKi of 5.36

The recorded pKi for entry [N-]=[N+]=NCC(=O)N[C@@H]1O[C@H](CO)[C@@H](O)[C@H](O)[C@H]1O equals 4.31

Noted for O=C(N[C@@H]1O[C@H](CO)[C@@H](O)[C@H](O)[C@H]1O)C(F)(F)F : its pKi reads 4.12

The value of pKi measured for the molecule CC(=O)NC(=O)N[C@@H]1O[C@H](CO)[C@@H](O)[C@H](O)[C@H]1O turned out to be 3.43

Entry under test: COC(=O)c1ccc(C(=O)NC(=O)N[C@@H]2O[C@H](CO)[C@@H](O)[C@H](O)[C@H]2O)cc1 . Its pKi was 5.40

pKi reading for O=C(NC(=O)c1ccc(-c2ccccc2)cc1)N[C@@H]1O[C@H](CO)[C@@H](O)[C@H](O)[C@H]1O : 5.43

Noted for O=C(NC(=O)c1ccc(C(=O)OCc2ccccc2)cc1)N[C@@H]1O[C@H](CO)[C@@H](O)[C@H](O)[C@H]1O : its pKi reads 3.82

Reference for the values: ChEMBL document CHEMBL1944601
